Tested on: HEK-293T
Assay name: Multiplex assay against HEK293T
Assay type: toxicity, cell-based
Particulars: human, 12 h, 1 µM, compound concentration 1 uM, replicate 1
Measured endpoint: Population Hoechst High Intensity Objects (%)
Write the value in % as a bare number.

INSERT INTO measurements (compound, recorded_number) VALUES
  ('COc1cc(Nc2ncc3c(n2)-c2ccc(Cl)cc2C(c2c(F)cccc2OC)=NC3)ccc1C(=O)O', 5),
  ('CCCCCCNC(=O)Nc1ccc(S(=O)(=O)Nc2ccc(CCNC[C@H](O)COc3ccc(O)cc3)cc2)cc1', 7),
  ('Nc1nc(-c2ccco2)c2cnn(Cc3ccccc3F)c2n1', 9);

Prompt line: State, in one line, measured Population Hoechst High Intensity Objects (%) of C[C@@H]1CC(=O)Nc2cccc(-c3ccc4c(c3)c(-c3cnn(C)c3)nn4C)c2N1
Response line: 7

Prompt line: State, in one line, measured Population Hoechst High Intensity Objects (%) of O=C(O)CCC/C=C\CC1C(O)CC(O)C1/C=C/C(O)COc1cccc(Cl)c1 (centres undefined)
Response line: 9
